Assay: Maximum concentration achieved in rat brain when administered intraperitoneally at a dose of 10 mg/kg
Assay type: ADME, organism-based
Design: dose 10 mg/kg, route intraperitoneal
Details: ip

{"mol-smiles": "N[C@](CC1c2ccccc2Oc2ccccc21)(C(=O)O)[C@H]1C[C@@H]1C(=O)O", "unit-spec": "ng/g", "Cmax": 246}

----------
Assay: Brain concentration after 4 hr at a dose of 10 mg/kg when administered perorally
Settings: po

{"mol-smiles": "N[C@](CC1c2ccccc2Oc2ccccc21)(C(=O)O)[C@H]1C[C@@H]1C(=O)O", "unit-spec": "ng/g", "concentration at 4 h": 7.4}

----------
Assay: Brain concentration after 0.5 hr at a dose of 10 mg/kg when administered perorally
Details: po

{"mol-smiles": "N[C@](CC1c2ccccc2Oc2ccccc21)(C(=O)O)[C@H]1C[C@@H]1C(=O)O", "concentration at 0.5 h, ng/g": 1.7}

Reference for the values: ChEMBL document CHEMBL1131460
